pIC50 overview
Molecular target: Histone deacetylase 1 (Homo sapiens, UniProt Q13547)
Sequence (Q13547 whole entry, the tested form may be a part): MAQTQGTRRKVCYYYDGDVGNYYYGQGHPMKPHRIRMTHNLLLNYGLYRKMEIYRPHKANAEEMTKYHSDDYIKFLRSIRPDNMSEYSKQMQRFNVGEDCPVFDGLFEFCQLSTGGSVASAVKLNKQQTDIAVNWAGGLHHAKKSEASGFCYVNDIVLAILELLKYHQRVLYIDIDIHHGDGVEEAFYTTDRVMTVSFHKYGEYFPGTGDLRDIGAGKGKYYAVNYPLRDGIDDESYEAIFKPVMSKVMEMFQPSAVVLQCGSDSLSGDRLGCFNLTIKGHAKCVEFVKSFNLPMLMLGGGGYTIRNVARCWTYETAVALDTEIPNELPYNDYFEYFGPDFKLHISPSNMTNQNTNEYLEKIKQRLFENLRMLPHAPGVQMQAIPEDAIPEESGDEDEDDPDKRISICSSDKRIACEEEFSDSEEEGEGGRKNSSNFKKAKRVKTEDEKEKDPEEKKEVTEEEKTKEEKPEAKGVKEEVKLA
Test: Inhibition of full-length recombinant human HDAC1 (1 to 482 residues) expressed in baculovirus infected insect cells using Ac-Leu-Gly-Lys(Ac)-AMC as substrate incubated for 30 mins by fluorescence based assay
pIC50 is a log-scale quantity: -log10 of the concentration expressed in molar.

Some molecules with known pIC50 results, for comparison:
COc1cc2c(cc1-c1c(C)noc1C)[nH]c1nc(C)nc(NCCCCCC(=O)Nc3ccc(C(=O)NO)cc3)c12	7.07
COc1cc2c(cc1-c1c(C)noc1C)[nH]c1nc(C)nc(Nc3ccc(C(=O)NO)cc3)c12	6.40
COc1cc2c(cc1-c1c(C)noc1C)[nH]c1ncnc(NCCCCCCC(=O)NO)c12	8.00

# context switch: different molecule, same pIC50
Give the measured pIC50 of COc1cc2c(cc1-c1c(C)noc1C)[nH]c1nc(C)nc(Nc3ccc(/C=C/C(=O)NO)cc3)c12 .
5.92
